Values compiled from the supplement of paper PMC11908140.

B1: library; numbered along this chain (parent)
chain: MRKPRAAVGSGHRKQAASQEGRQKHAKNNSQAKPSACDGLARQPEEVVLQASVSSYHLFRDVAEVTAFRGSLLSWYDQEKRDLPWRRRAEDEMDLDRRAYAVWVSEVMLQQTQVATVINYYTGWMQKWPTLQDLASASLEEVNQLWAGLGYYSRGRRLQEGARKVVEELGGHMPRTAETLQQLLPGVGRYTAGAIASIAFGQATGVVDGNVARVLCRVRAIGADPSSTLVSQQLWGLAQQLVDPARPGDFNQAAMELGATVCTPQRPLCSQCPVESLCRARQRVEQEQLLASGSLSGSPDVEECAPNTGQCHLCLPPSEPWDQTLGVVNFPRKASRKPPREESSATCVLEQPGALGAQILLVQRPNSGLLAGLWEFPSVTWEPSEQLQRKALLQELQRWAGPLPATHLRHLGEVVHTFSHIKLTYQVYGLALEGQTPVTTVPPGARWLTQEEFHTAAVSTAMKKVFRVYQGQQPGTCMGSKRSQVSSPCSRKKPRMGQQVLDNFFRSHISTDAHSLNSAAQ

variants of: B1; test: 8OG:A repair function score (normalized; synonymous = 0, nonsense = -1) (normalized log-likelihood score); higher = more repair activity (WT-like); conditions: with 8OG:A DNA repair reporter (GFP) in HEK-293 MUTYH KO cells;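 further: cells sorted at 72 h after reporter transfection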
Reported 8OG:A repair function score values for the following variants.
measurement label: 8OG:A repair function score

# mutation notation, measurement label, assay result
data = [
    ("G222Y", "8OG:A repair function score", -0.461),
    ("S226K", "8OG:A repair function score", 0.026),
    ("G258R", "8OG:A repair function score", -1.2),
    ("W399V", "8OG:A repair function score", -0.167),
    ("H407M", "8OG:A repair function score", -0.456),
    ("S367P", "8OG:A repair function score", -0.0154),
    ("W75A", "8OG:A repair function score", -1.3),
    ("P339N", "8OG:A repair function score", -0.17),
    ("P339H", "8OG:A repair function score", 0.0544),
    ("E452T", "8OG:A repair function score", 0.0217),
    ("I118K", "8OG:A repair function score", -0.483),
    ("S74F", "8OG:A repair function score", -0.0182),
    ("Q288P", "8OG:A repair function score", -0.036),
    ("K164A", "8OG:A repair function score", -0.133),
    ("T324V", "8OG:A repair function score", -0.0374),
    ("A371N", "8OG:A repair function score", -0.476),
    ("G429K", "8OG:A repair function score", -0.404),
    ("S507L", "8OG:A repair function score", -0.0301),
    ("S54F", "8OG:A repair function score", -0.0664),
    ("V328R", "8OG:A repair function score", 0.0191),
    ("Q182T", "8OG:A repair function score", -0.0374),
    ("V485Y", "8OG:A repair function score", -0.0379),
    ("L158A", "8OG:A repair function score", -0.675),
    ("T439K", "8OG:A repair function score", 0.00137),
    ("R283S", "8OG:A repair function score", -0.203),
    ("Q426Y", "8OG:A repair function score", 0.0116),
    ("N329I", "8OG:A repair function score", -0.365),
    ("G150A", "8OG:A repair function score", -1.42),
    ("N307R", "8OG:A repair function score", -0.00117),
    ("Q351D", "8OG:A repair function score", -0.266),
    ("F505D", "8OG:A repair function score", 0.0229),
    ("Y190T", "8OG:A repair function score", -0.419),
    ("Q472C", "8OG:A repair function score", -0.0129),
    ("T260N", "8OG:A repair function score", -0.111),
    ("K390M", "8OG:A repair function score", -0.0263),
    ("M173I", "8OG:A repair function score", 0.0625),
    ("G201S", "8OG:A repair function score", -0.0385),
    ("P474K", "8OG:A repair function score", -0.0164),
    ("T176D", "8OG:A repair function score", 0.00933),
    ("G222D", "8OG:A repair function score", -0.733),
    ("S52V", "8OG:A repair function score", -0.00119),
    ("C304I", "8OG:A repair function score", -0.257),
    ("S343F", "8OG:A repair function score", -0.0296),
    ("L387M", "8OG:A repair function score", 0.0425),
    ("R482C", "8OG:A repair function score", 0.0254),
    ("R491M", "8OG:A repair function score", 0.0281),
    ("A334D", "8OG:A repair function score", -0.242),
    ("K333S", "8OG:A repair function score", -0.141),
    ("F376L", "8OG:A repair function score", -0.608),
    ("S343G", "8OG:A repair function score", -0.00518),
    ("V218M", "8OG:A repair function score", 0.0454),
    ("L403M", "8OG:A repair function score", -0.0231),
    ("C262R", "8OG:A repair function score", -1.05),
    ("S378F", "8OG:A repair function score", -0.0771),
    ("S136A", "8OG:A repair function score", 0.0607),
    ("S270D", "8OG:A repair function score", -0.0528),
    ("S270M", "8OG:A repair function score", -0.0147),
    ("V438S", "8OG:A repair function score", -0.176),
    ("E341R", "8OG:A repair function score", 0.0117),
    ("A89N", "8OG:A repair function score", -0.00625),
    ("G248W", "8OG:A repair function score", -0.937),
    ("W447D", "8OG:A repair function score", -1.18),
    ("R97H", "8OG:A repair function score", -0.211),
    ("G368D", "8OG:A repair function score", -0.434),
    ("W124T", "8OG:A repair function score", -0.869),
    ("E160Q", "8OG:A repair function score", 0.018),
    ("P339L", "8OG:A repair function score", -0.113),
    ("T191F", "8OG:A repair function score", -1.01),
    ("S483M", "8OG:A repair function score", -0.00708),
    ("L72M", "8OG:A repair function score", -0.732),
    ("N251M", "8OG:A repair function score", -0.915),
    ("A445H", "8OG:A repair function score", -0.71),
    ("S105A", "8OG:A repair function score", -0.0215),
    ("V142T", "8OG:A repair function score", -0.532),
    ("Q126V", "8OG:A repair function score", -0.0961),
    ("D249E", "8OG:A repair function score", -0.208),
    ("R332G", "8OG:A repair function score", -0.193),
    ("F250N", "8OG:A repair function score", -0.903),
    ("T191Q", "8OG:A repair function score", -0.768),
    ("T179Y", "8OG:A repair function score", -0.146),
    ("L149A", "8OG:A repair function score", -0.323),
    ("V284D", "8OG:A repair function score", -0.0734),
    ("L180C", "8OG:A repair function score", -0.258),
    ("V465E", "8OG:A repair function score", -1.42),
    ("Q473W", "8OG:A repair function score", 0.0181),
    ("R246N", "8OG:A repair function score", -0.471),
    ("V214W", "8OG:A repair function score", -0.258),
    ("L215W", "8OG:A repair function score", -0.704),
    ("L393Q", "8OG:A repair function score", 0.0615),
    ("L393T", "8OG:A repair function score", -0.383),
    ("T455V", "8OG:A repair function score", -0.122),
]
